Where these numbers come from: patent US20260151494A1

Assignment: determine reported RLU for the given binders.
biological target: T1, human CD71 extracellular domain (human, UniProt P02786 89-760, biotinylated); assay: primary ELISA; further: test concentration or dose not given here
T1 construct: also called hCD71; CD71-ECD
T1 sequence (P02786 89-760): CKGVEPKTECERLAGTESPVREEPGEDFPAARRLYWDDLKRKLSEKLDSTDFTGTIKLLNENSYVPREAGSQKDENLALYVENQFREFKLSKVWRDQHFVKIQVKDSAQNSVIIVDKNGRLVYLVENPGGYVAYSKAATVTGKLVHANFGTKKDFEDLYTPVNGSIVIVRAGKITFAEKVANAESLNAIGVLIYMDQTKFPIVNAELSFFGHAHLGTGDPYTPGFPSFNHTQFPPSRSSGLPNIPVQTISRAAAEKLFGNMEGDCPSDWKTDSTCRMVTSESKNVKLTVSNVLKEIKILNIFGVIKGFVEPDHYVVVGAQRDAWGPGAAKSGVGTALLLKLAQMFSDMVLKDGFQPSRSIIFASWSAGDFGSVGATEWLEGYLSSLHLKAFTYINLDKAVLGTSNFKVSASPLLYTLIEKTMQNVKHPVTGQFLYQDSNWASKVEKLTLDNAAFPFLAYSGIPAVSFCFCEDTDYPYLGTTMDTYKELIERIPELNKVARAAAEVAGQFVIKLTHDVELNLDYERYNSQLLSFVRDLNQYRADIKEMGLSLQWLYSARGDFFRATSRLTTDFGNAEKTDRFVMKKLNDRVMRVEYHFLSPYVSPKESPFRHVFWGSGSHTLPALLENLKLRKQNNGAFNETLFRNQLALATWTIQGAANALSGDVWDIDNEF
Report as: number unit

Task: Please give the documented RLU of CD71-binding FN3 domain of SEQ ID NO: 452 (designed binder) MLPAPKNLVVSRVTEDSARLSWTAPDAAFDSFFIGYLEPQPPGEAIHLQVPGSERSYDLTGLKPGTEYNVTIQGVKGGFPSIPLVAQFTT
Output: 5.24e+06 RLU

Task: Please give the documented RLU of CD71-binding FN3 domain of SEQ ID NO: 486 (designed binder) MLPAPENLVVSRVTEDSARLSWTALDAAFDSFFIGYLEPQPPGEAISLLVPGSERSYDLTGLKPGTEYNVTIQGVKGGIASEPLSAAFTT
Output: 1.75e+06 RLU
